Target: B. subtilis Pol IIIC (Bacillus subtilis, UniProt P13267)
Construct: made in house
Sequence (P13267 whole entry): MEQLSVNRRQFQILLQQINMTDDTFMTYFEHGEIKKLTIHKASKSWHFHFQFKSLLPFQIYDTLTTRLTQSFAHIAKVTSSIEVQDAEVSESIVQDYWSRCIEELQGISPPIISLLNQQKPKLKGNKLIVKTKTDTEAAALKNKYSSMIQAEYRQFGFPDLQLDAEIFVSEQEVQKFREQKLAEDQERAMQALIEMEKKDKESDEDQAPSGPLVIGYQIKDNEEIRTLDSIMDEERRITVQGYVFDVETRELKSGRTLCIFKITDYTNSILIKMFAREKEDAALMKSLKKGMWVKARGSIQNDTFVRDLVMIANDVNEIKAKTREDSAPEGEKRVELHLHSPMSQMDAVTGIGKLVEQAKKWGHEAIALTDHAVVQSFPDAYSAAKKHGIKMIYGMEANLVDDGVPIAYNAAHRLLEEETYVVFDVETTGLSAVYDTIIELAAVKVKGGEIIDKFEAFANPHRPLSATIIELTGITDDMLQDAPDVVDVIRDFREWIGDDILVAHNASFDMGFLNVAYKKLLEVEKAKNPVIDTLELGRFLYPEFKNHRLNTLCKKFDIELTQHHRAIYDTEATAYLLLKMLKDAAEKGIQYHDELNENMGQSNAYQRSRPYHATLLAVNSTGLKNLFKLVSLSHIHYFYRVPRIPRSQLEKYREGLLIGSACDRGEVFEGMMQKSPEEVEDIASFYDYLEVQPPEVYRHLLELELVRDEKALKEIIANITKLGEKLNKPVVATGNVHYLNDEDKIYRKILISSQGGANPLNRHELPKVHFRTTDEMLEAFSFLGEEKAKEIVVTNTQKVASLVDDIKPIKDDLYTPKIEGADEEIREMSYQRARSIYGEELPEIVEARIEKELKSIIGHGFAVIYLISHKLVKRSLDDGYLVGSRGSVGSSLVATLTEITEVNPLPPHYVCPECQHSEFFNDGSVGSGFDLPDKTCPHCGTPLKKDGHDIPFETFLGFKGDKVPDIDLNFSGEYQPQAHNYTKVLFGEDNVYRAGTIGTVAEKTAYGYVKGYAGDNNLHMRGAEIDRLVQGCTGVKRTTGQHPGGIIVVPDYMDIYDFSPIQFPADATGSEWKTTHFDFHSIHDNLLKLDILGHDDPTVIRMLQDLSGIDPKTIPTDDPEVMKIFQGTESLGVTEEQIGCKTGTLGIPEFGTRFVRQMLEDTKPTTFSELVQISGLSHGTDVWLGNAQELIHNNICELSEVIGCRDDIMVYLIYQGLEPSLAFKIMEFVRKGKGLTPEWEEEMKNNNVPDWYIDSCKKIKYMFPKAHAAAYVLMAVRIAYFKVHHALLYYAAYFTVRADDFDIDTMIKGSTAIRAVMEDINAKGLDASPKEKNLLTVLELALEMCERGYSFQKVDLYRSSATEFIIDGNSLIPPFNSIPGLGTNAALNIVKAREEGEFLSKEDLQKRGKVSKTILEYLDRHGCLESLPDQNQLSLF
Experiment: Polymerase IIIC (Pol IIIC) assay, determination of Ki values
Format: biochemical
Settings: Ki (µM) Pol IIIC, assay in absence of dGTP or dATP; Ki is the concentration that reduces control polymerase IIIC activity by 50 percent
Ki for assorted compounds
Numeric answer only, unit µM assumed.

CCc1cc(Nc2cc(=O)n(CCOCCN3CCN(c4cc5c(cc4F)c(=O)c(C(=O)O)cn5C4CC4)CC3)c(=O)[nH]2)ccc1C | 0.03
CCc1cc(Nc2cc(=O)n(CCCCN3CCN(c4cc5c(cc4F)c(=O)c(C(=O)O)cn5C4CC4)CC3)c(=O)[nH]2)ccc1C | 0.024

Next compound, Ki to be filled in.
GET /value?item= O=C(O)c1cn(C2CC2)c2cc(N3CCN(CCCCn4c(=O)cc(NCc5ccc(Cl)c(Cl)c5)[nH]c4=O)CC3)c(F)cc2c1=O &field=Ki returns 0.047

###

System: MRSA1094
Test: MIC against clinically relevant strains
Format: cell-based
Details: Staphylococcus aureus; methicillin resistant S. aureus strain
Measurement Type: MIC (mg/L)
Please give a number only; it is taken to be in mg/L.

Below are worked cases with known answers.
CCc1cc(Nc2cc(=O)n(CCCCN3CCN(c4cc5c(cc4F)c(=O)c(C(=O)O)cn5C4CC4)CC3)c(=O)[nH]2)ccc1C | 0.625
CCc1cc(Nc2cc(=O)n(CCCCN3CCN(c4nc5c(cc4F)c(=O)c(C(=O)O)cn5CC)CC3)c(=O)[nH]2)ccc1C | 1.25
CCc1cc(Nc2cc(=O)n(CCCCN3CCN(c4c(F)cc5c(=O)c(C(=O)O)cn(CC)c5c4F)CC3)c(=O)[nH]2)ccc1C | 0.625
CCc1cc(Nc2cc(=O)n(CCCCN3CCN(c4cc5c(cc4F)c(=O)c(C(=O)O)cn5C4CC4)CC3)c(=O)[nH]2)ccc1C.CS(=O)(=O)O | 1.25
CCc1cc(Nc2cc(=O)n(CCCCN3CCN(c4c(F)cc5c(=O)c(C(=O)O)cn(C6CC6)c5c4F)CC3C)c(=O)[nH]2)ccc1C (stereo not shown) | 0.94
CCc1cc(Nc2cc(=O)n(CCCCN3CCN(c4cc5c(cc4F)c(=O)c(C(=O)O)cn5-c4ccc(F)cc4F)CC3)c(=O)[nH]2)ccc1C | 0.625

API: the following record is the query input.
Assay MRSA1094, sample CCc1cc(Nc2cc(=O)n(CCCCN3CCN(c4c(F)cc5c(=O)c(C(=O)O)cn(CC)c5c4Cl)CC3)c(=O)[nH]2)ccc1C , MIC read: 0.625

###

Molecular target: B. subtilis Pol IIIC (Bacillus subtilis)
Construct: made in house
Assay: Polymerase IIIC (Pol IIIC) assay, determination of Ki values
Type: biochemical
Settings: Ki (µM) Pol IIIC, assay in absence of dGTP or dATP; Ki is the concentration that reduces control polymerase IIIC activity by 50 percent
Measurement Type: log10(Ki) (log10 of the value in µM)
A difference of one corresponds to tenfold Ki; all values are log10 with Ki in µM.

Worked cases, log10(Ki) given:
CCc1cc(Nc2cc(=O)n(CCCCN3CCN(c4c(F)cc5c(=O)c(C(=O)O)cn(C6CC6)c5c4F)C[C@@H]3C)c(=O)[nH]2)ccc1C | -2.15
CCc1cc(Nc2cc(=O)n(CCCCN3CCN(c4ncc5c(=O)c(C(=O)O)cn(CC)c5n4)CC3)c(=O)[nH]2)ccc1C | -1.55
CCc1cc(Nc2cc(=O)n(CCCCN3CCN(c4cc5c(cc4F)c(=O)c(C(=O)O)cn5-c4ccc(F)cc4F)C[C@H]3C)c(=O)[nH]2)ccc1C | -1.77

Measured log10(Ki) of CCc1cc(Nc2cc(=O)n(CCCCCCCN3CCN(c4cc5c(cc4F)c(=O)c(C(=O)O)cn5C4CC4)CC3)c(=O)[nH]2)ccc1C : -1.89

The recorded log10(Ki) for CCc1cc(Nc2ccc(CCCCN3CCN(c4cc5c(cc4F)c(=O)c(C(=O)O)cn5CC)CC3)c(=O)[nH]2)ccc1C is 0.38

CCc1cccc(Nc2cc(=O)n(CCCCN3CCN(c4cc5c(cc4F)c(=O)c(C(=O)O)cn5C4CC4)CC3)c(=O)[nH]2)c1 has a reported log10(Ki) of -0.59

The compound listed as CCc1cc(Nc2cc(=O)n(CCCCCN3CCOC4CN(c5c(F)cc6c(=O)c(C(=O)O)cn(CC)c6c5F)CC43)c(=O)[nH]2)ccc1C (centres unmarked) has a reported log10(Ki) of -1.23

// recorded log10(Ki) for Cc1ccc(Nc2cc(=O)n(CCCCN3CCN(c4cc5c(cc4F)c(=O)c(C(=O)O)cn5C4CC4)CC3)c(=O)[nH]2)cc1C : -1.02

The compound listed as CCc1cc(Nc2cc(=O)n(CCCCN3CCN(c4cc5c(cc4F)c(=O)c(C(=O)O)cn5C4CC4)C[C@H]3C)c(=O)[nH]2)ccc1C has a reported log10(Ki) of -1.92

Entry CCc1cc(Nc2cc(=O)n(CCCCN3CCN(c4cc5c(cc4F)c(=O)c(C(=O)O)cn5C4CC4)CC3)c(=O)[nH]2)ccc1C.CS(=O)(=O)O [Compound 10, methanesulfonate] , log10(Ki) reported as -1.74

The reported value for O=C(O)c1cn(C2CC2)c2cc(N3CCN(CCCCn4c(=O)cc(Nc5ccc6c(c5)CCC6)[nH]c4=O)CC3)c(F)cc2c1=O in terms of log10(Ki) is -1.47

Documented log10(Ki) of CCc1cc(Nc2cc(=O)n(CCCCCN3CCCC4CN(c5cc6c(cc5F)c(=O)c(C(=O)O)cn6C5CC5)CC43)c(=O)[nH]2)ccc1C (centres unmarked) : -1.39

Sample Cc1ccc(Nc2cc(=O)n(CCCCN3CCN(c4cc5c(cc4F)c(=O)c(C(=O)O)cn5C4CC4)C[C@@H]3C)c(=O)[nH]2)cc1C ; log10(Ki) observed: -1.43

Documented log10(Ki) of CCc1cc(Nc2cc(=O)n(CCCCCN3CCCC4CN(c5cc6c(cc5F)c(=O)c(C(=O)O)cn6CC)CC43)c(=O)[nH]2)ccc1C (centres unmarked) : -1.43

Memo: CCc1cc(Nc2cc(=O)n(CCCCN3CCN(c4cc5c(cc4F)c(=O)c(C(=O)O)cn5C4CC4)C[C@@H]3C)c(=O)[nH]2)ccc1C , reported log10(Ki): -1.96

Measured log10(Ki) of Cc1ccc(Nc2cc(=O)n(CCCCN3CCN(c4cc5c(cc4F)c(=O)c(C(=O)O)cn5C4CC4)C[C@H]3C)c(=O)[nH]2)cc1C : -1.72

Field log10(Ki) (entry CCc1cc(Nc2cc(=O)n(CCCCCN3CC4CN(c5cc6c(cc5F)c(=O)c(C(=O)O)cn6C5CC5)CC4C3)c(=O)[nH]2)ccc1C (centres unmarked) ) reads -1.27

###

Test system: S. aureus
Test: Minimal Inhibitory Concentration (MIC) determination, 96 well plates
Type: cell-based, Staphylococcus aureus
Details: Staphylococcus aureus; HBI medium, 16 to 18 hours at 37°C; read-out: MIC (µg/ml) S. aureus
Examples of compounds with documented MIC follow.
Please reply with the bare figure in µg/mL and do not write the unit itself.

Sample records with MIC:
CCc1cc(Nc2cc(=O)n(CCCCCN3CC4CN(c5cc6c(cc5F)c(=O)c(C(=O)O)cn6C5CC5)CC4C3)c(=O)[nH]2)ccc1C (stereo not shown) [Compound 86] | 5
Cc1ccc(Nc2cc(=O)n(CCCCN3CCN(c4c(F)cc5c(=O)c(C(=O)O)cn(C6CC6)c5c4F)CC3C)c(=O)[nH]2)cc1C (stereo not shown) [Compound 94] | 0.625
CCc1cc(Nc2cc(=O)n(CCCCCCCN3CCN(c4cc5c(cc4F)c(=O)c(C(=O)O)cn5C4CC4)CC3)c(=O)[nH]2)ccc1C [Compound 8] | 1.25
O=C(O)c1cn(C2CC2)c2cc(N3CCNCC3)c(F)cc2c1=O [cflxn, ciprofloxacin, reference compound] | 0.156
CCc1cc(Nc2cc(=O)n(CCCCN3CCN(c4nc5c(cc4F)c(=O)c(C(=O)O)cn5CC)CC3)c(=O)[nH]2)ccc1C [Compound 6] | 0.625

The compound listed as CCc1cc(Nc2cc(=O)n(CCOCCN3CCN(c4cc5c(cc4F)c(=O)c(C(=O)O)cn5C4CC4)CC3)c(=O)[nH]2)ccc1C [Compound 11] shows MIC equal to 5

For reference, reported MIC for CCc1cc(Nc2cc(=O)n(CCCCN3CCN(c4c(F)cc5c(=O)c(C(=O)O)cn(CC)c5c4F)CC3)c(=O)[nH]2)ccc1C [Compound 7] stands at 0.625

Query CCc1cc(Nc2cc(=O)n(CCCCCN3CCOC4CN(c5cc6c(cc5F)c(=O)c(C(=O)O)cn6C5CC5)CC43)c(=O)[nH]2)ccc1C (stereo not shown) [Compound 84] yields MIC of 1.25

Lab note: Cc1ccc(Nc2cc(=O)n(CCCCN3CCN(c4cc5c(cc4F)c(=O)c(C(=O)O)cn5C4CC4)CC3)c(=O)[nH]2)cc1Cl [Compound 64] gave MIC of 1.25
